Data origin: patent US10556898B2

MEASUREMENT_TARGET: GST-tagged human ROCK2 catalytic domain 1-553 (Homo sapiens, UniProt O75116)
Construct: GST-tagged human ROCK2 catalytic domain 1-553 from Carna Biosciences (Cat #01-110); purchased Carna Biosciences 01-110; host or cells: baculovirus expression system
Sequence (O75116 1-553): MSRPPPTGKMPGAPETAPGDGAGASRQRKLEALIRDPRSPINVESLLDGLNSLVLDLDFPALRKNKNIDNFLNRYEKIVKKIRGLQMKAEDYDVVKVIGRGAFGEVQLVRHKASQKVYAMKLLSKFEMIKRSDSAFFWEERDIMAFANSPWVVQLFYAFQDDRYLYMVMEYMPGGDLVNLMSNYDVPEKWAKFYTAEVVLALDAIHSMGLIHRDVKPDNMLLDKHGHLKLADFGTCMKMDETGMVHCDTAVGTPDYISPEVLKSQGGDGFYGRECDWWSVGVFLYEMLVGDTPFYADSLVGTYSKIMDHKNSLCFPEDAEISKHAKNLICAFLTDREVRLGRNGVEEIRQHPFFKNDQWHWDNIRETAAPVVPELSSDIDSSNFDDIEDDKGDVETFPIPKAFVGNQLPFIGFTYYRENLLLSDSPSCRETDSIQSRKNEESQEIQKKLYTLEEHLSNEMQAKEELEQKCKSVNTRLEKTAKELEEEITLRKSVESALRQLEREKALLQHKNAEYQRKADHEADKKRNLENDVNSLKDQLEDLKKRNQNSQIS
TEST_PROTOCOL: Isolated Enzyme Assay, ROCK2 (LANCE Ultra ULight-CREBtide FRET)
Format: biochemical
MEASUREMENT_SETUP: isolated enzyme; 30 μM highest concentration tested; read-out: Results from Isolated Enzyme Assay IC50 (μM) ROCK2
Items are presented alongside their recorded IC50.

COMPOUND	IC50
Cc1ccncc1C(=O)Nc1cccc(-c2nsc(Nc3ccc4[nH]ncc4c3Cl)n2)c1 [Compound A-4]	< 1 µM
O=C(Nc1cccc(-c2nsc(Nc3ccc4[nH]ncc4c3Cl)n2)c1)c1cnco1 [Compound A-17]	< 1 µM

Now look at this one.
Form: Entry = O=C(Nc1cccc(-c2nsc(Nc3ccc4[nH]ncc4c3Cl)n2)c1)c1cnc[nH]1 [Compound A-14] | System = GST-tagged human ROCK2 catalytic domain 1-553 (Homo sapiens, UniProt O75116) | IC50 = ____
< 1 µM
